The measured values listed here are drawn from patent US20110020786A1.

target: immobilized NoVLPs; assay: Surface plasmon resonance, dendrimer binding to immobilized NoVLPs (KD determination); parameters: species or system Norovirus; conditions: steady-state model fit of equilibrium average response, 8-240 μM dendrimer, HBS-P, 10 μL/min
pKd: −log10 of the molar value. Ends that are not written are not given here.
ASSAY_READOUT: pKd

RHFQTHTVPLSL8 (also: octovalent dendrimer of the peptide) | 3.93
